Below, each of the molecules is paired with its reported IC80 value.
- Tested on: Pichia kudriavzevii
- test_name: Antifungal activity against Candida krusei ATCC 6258 after 24 hrs by microdilution method
- Format: functional
- condition_description: ATCC 6258, 24 h

structure_notation	study_target	units_of_measure	IC80
Cc1ccc(C=C2C(=O)C=CC2=O)cc1	Pichia kudriavzevii	µM	7.81
O=C1C=CC(=O)C1=Cc1ccc(Cl)cc1	Pichia kudriavzevii	µM	31.2
O=C1C=CC(=O)C1=Cc1ccc(F)cc1	Pichia kudriavzevii	µM	15.6
COc1ccc(/C=C/C=C2C(=O)C=CC2=O)cc1	Pichia kudriavzevii	µM	250
CN(C)c1ccc(C=C2C(=O)C=CC2=O)cc1	Pichia kudriavzevii	µM	7.81
O=C1C=CC(=O)C1=Cc1ccccc1	Pichia kudriavzevii	µM	3.9
